Target: Fibroblast growth factor 2 (Homo sapiens)
Assay: FGF2 binders on small-molecule microarrays, primary screen, biochemical, small-molecule microarray, 635/667 nm fluorescence (AID 1133)
Conditions: small-molecule microarray binding, FGF2, fluorescence 635/667; higher = more signal
Please respond with reported composite z-score for every item in the list.
Give bare numbers.

compound	study_system	recorded_number
CO[C@H]1O[C@H](CO)[C@@H](OC(=O)Nc2ccc3c(c2)OCO3)[C@H](OC(=O)c2cc3ccccc3[nH]2)[C@H]1OC(=O)c1cc2ccccc2[nH]1	Fibroblast growth factor 2 (Homo sapiens)	0.791

Could you report composite z-score for every entry in the following list?
1. COc1ccc([Si](C)(C)[C@@H]2[C@@H](CC(=O)N(CCO)Cc3ccccc3)O[C@]3(C(=O)N(Cc4cccc(N5C(=O)c6cccc7cccc5c67)c4)c4ccccc43)[C@H]2C)cc1
2. CC(C)OC(=O)C=C1C[C@@H](c2ccc(C(F)(F)F)cc2)O[C@@H](c2ccc(C(F)(F)F)cc2)O1

1. 1.72
2. -0.46

Hey, can you go through the list below and give me composite z-score for every item?
1. C=C(COC)C(=O)CC[C@@H](OC(=O)c1cccnc1)c1ccc(OCCO)cc1
2. C=CCOC(=O)[C@H]1[C@@H]2C(=O)O[C@@H](c3ccccc3)[C@@H](c3ccccc3)N2[C@@H](c2ccc(OCCOC(=O)[C@@H]3C[C@@H]4C(=O)N[C@@H](CCCCN(C)C)C(=O)N4[C@@H]3c3ccc(O)cc3)cc2)[C@]12C(=O)Nc1ccccc12
3. O=C1C=C(c2ccccc2)C(=O)c2ccc([C@H]3Oc4ccccc4S(=O)(=O)N4CCC[C@@H]34)cc21
4. COc1ccc(C(O)C2C=CC3C(=O)N(c4ccccc4)C(=O)C3N2Nc2ccc([N+](=O)[O-])cc2)cc1 (stereo not drawn)
5. CN1C(=O)C2C=CC(C(O)C#Cc3ccccc3)N(Nc3ccccc3)C2C1=O (stereo not drawn)
6. COC(=O)c1c(CC[C@@H](CO)NC(=O)N2CCC[C@H]2Cn2cc(Cc3ccccc3)nn2)oc(C(C)=O)c1C(=O)OC
7. O=C1O[C@@H](c2ccccc2)[C@@H](c2ccccc2)N2[C@@H](c3ccc(O)cc3)[C@]3(C(=O)Nc4ccc(C#CC5(O)CCCCCC5)cc43)[C@@H](C(=O)NC[C@H](O)c3ccccc3)[C@H]12
8. O=C(CS)NCCCCCNC(=O)[C@@H]1C[C@@H]2C(=O)N3CCC[C@H]3C(=O)N2[C@@H]1c1cccc(OCCO)c1

1: 1.78; 2: 1.48; 3: -0.0096; 4: -0.246; 5: 0.101; 6: 0.147; 7: -0.322; 8: 1.24

Fill in composite z-score for each of the 4 compounds listed.
1. C=C[C@@H](OC)[C@H](OC(=O)Nc1ccc(SC)cc1)c1ccc(O)c(F)c1
2. [N-]=[N+]=Nc1ccccc1C[C@]1(C(=O)N2CCOCC2)N=C(c2ccc(OCCCO)cc2)O[C@H]1c1ccccc1
3. [N-]=[N+]=Nc1ccccc1[C@H]1OC(c2ccc(OCCCO)cc2)=N[C@@]1(CCS(=O)(=O)c1ccccc1)C(=O)NCCN1CCOCC1
4. C=CCOC(=O)[C@H]1[C@@H]2C(=O)O[C@@H](c3ccccc3)[C@@H](c3ccccc3)N2[C@@H](c2ccc(OCCOC(=O)[C@H]3C[C@H]4C(=O)N[C@@H](CCCCNC(C)=O)C(=O)N4[C@H]3c3ccc(O)cc3)cc2)[C@]12C(=O)Nc1ccccc12

1: 0.207; 2: 1.81; 3: 0.471; 4: 1.63

I need composite z-score for every entry listed below, if you could help.
1. O=C1O[C@H](c2ccccc2)[C@H](c2ccccc2)N2[C@H]1[C@@H](C(=O)O)[C@]1(C(=O)Nc3ccc(C#CC4=CCCCC4)cc31)[C@H]2c1ccc(O)cc1
2. COCCCNC(=O)[C@]1(CCS(=O)(=O)c2ccccc2)N=C(c2ccc(OCCCO)cc2)O[C@@H]1c1ccccc1CN=[N+]=[N-]
3. C=C(C)c1cc2c(c(CCCCCC)n1)[Si](C(C)C)(C(C)C)OC2
4. CCOC(=O)C[C@H]1[C@H](OC(=O)c2ccccc2-c2ccccc2)[C@@H](NC(=O)C2CCCCC2)c2cc(OCCCO)ccc2N1C(=O)Cc1ccc(OC)cc1
5. COC(=O)Cn1c(C(=O)N(C)C)cc2c1C[C@H]1CN(C(=O)c3ccccc3)[C@@](Cc3ccc(F)cc3)(C(=O)OC)[C@@H]21
6. C[N+](C)(C)CCCCCCNC(=O)[C@H]1C[C@H]2C(=O)NCC(=O)N2[C@H]1c1ccc(O)cc1

[0.392, 0.803, -1.45, -0.377, 0.386, 1.67]

FYI, the data here is from PubChem BioAssay.
